Data credit: patent US20080146616A1

Target protein (sequence): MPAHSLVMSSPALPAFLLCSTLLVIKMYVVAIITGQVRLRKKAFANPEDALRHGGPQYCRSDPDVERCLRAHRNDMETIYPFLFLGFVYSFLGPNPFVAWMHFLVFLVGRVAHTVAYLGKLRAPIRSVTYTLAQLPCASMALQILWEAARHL
MEASURE_NAME: IC50

Q. Entry "CC(C)Oc1ccc(-c2c(C(=O)O)n(-c3cccc(OC(C)C)c3)c3ccc(-c4ccc(C(C)(C)C)cc4)cc23)cc1" : reported IC50 = ?
A. 350 nM
